Tested on: Caspase 3
Assay: Caspase 3 detection assay in SJSA1 cells
Type: cell-based
Settings: 3 μM, SJSA1, 48 h, Caspase 3 activation over DMSO-treated cells
Bridge positions count the residues as written; N and C are the ends. Square brackets hold non-standard residues; d marks the D form. Peptide text beside a SMILES is read from it. R8 = C=CCCCCCC[C@@](C)(N)C(=O)O; Cba = N[C@@H](CC1CCC1)C(=O)O; S5 = C=CCCC[C@](C)(N)C(=O)O; Nle = CCCC[C@H](N)C(=O)O
Assign MET whenever caspase 3 μM does not fall below 3; assign NOT MET whenever it does.

CC(=O)N[C@@H](CCC(=O)O)C(=O)N[C@H](C(=O)N[C@@H](Cc1ccccc1)C(=O)N[C@]1(C)CCCCCCC=CCCC[C@@](C)(C(=O)N[C@@H](CO)C(=O)N[C@H](C(=O)N[C@@H](C)C(N)=O)C(C)C)NC(=O)[C@H](CC(C)C)NC(=O)[C@H](CCC(N)=O)NC(=O)[C@H](C)NC(=O)[C@H](Cc2c[nH]c3ccccc23)NC(=O)[C@H](Cc2ccc(O)cc2)NC(=O)[C@H](C(C)C)NC1=O)[C@@H](C)O [compound 126] (Ac-ETF[R8]VYWAQL[S5]SVA-NH2; staple 4-11)    NOT MET
CCCC[C@H](NC(=O)[C@H](C)NC(=O)[C@H](C)NC(=O)[C@]1(C)CCCC=CCCCCCC[C@@](C)(NC(=O)[C@H](Cc2ccccc2)NC(=O)[C@@H](NC(=O)[C@H](CCC(=O)O)NC(C)=O)[C@@H](C)O)C(=O)N[C@@H](C)C(=O)N[C@@H](Cc2ccc(O)cc2)C(=O)N[C@@H](Cc2c[nH]c3ccccc23)C(=O)N[C@@H](C)C(=O)N[C@@H](CCC(N)=O)C(=O)N[C@@H](CC2CCC2)C(=O)N1)C(=O)N[C@@H](C)C(N)=O [compound 237] (Ac-ETF[R8]AYWAQ[Cba][S5]AA[Nle]A-NH2; staple 4-11)    MET
CC(=O)N[C@@H](CC(C)C)C(=O)N[C@H](C(=O)N[C@@H](Cc1ccccc1)C(=O)N[C@]1(C)CCCCCCC=CCCC[C@@](C)(C(=O)N[C@@H](CO)C(=O)N[C@H](C(=O)N[C@@H](CO)C(N)=O)C(C)C)NC(=O)[C@H](CC(C)C)NC(=O)[C@H](CCC(N)=O)NC(=O)[C@H](C)NC(=O)[C@H](Cc2c[nH]c3ccccc23)NC(=O)[C@H](Cc2ccc(O)cc2)NC(=O)[C@H](C)NC1=O)[C@@H](C)O [compound 121] (Ac-LTF[R8]AYWAQL[S5]SVS-NH2; staple 4-11)    MET

**Query** caspase 3 μM >= 3 for CC(=O)N[C@@H](CC(C)C)C(=O)N[C@H](C(=O)N[C@@H](Cc1ccccc1)C(=O)N[C@]1(C)CCCCCCC=CCCC[C@@](C)(C(=O)N[C@@H](CO)C(=O)N[C@@H](C)C(=O)N[C@@H](C)C(N)=O)NC(=O)[C@H](CC2CCCCC2)NC(=O)[C@H](CCC(N)=O)NC(=O)[C@H](C)NC(=O)[C@H](Cc2c[nH]c3ccccc23)NC(=O)[C@H](Cc2ccc(O)cc2)NC(=O)[C@H](CCC(=O)O)NC1=O)[C@@H](C)O (single isomer, unassigned) ?
**Result** MET

====

System: SJSA-1 cells
Experiment: Cell lysis by peptidomimetic macrocycles (LDH release)
Type: cell-based
Settings: 50 μM, SJSA-1, 1 h
Bridge positions count the residues as written; N and C are the ends. Square brackets hold non-standard residues; d marks the D form. Peptide text beside a SMILES is read from it. R8 = C=CCCCCCC[C@@](C)(N)C(=O)O; S5 = C=CCCC[C@](C)(N)C(=O)O
// 50 μM % Lysed cells (1 h LDH) lookup, one value per entry
State just the number; it will be interpreted in %.

CC(=O)N[C@@H](CC(C)C)C(=O)N[C@H](C(=O)N[C@@H](Cc1ccccc1)C(=O)N[C@]1(C)CCCCCCC=CCCC[C@@](C)(C(=O)N[C@@H](C)C(=O)N[C@@H](C)C(=O)N[C@@H](C)C(=O)N[C@@H](C)C(=O)N[C@@H](C)C(=O)N[C@@H](C)C(=O)N[C@H](C)C(N)=O)NC(=O)[C@H](CC(C)C)NC(=O)[C@H](CCC(N)=O)NC(=O)[C@H](C)NC(=O)[C@H](Cc2c[nH]c3ccccc23)NC(=O)[C@H](Cc2ccc(O)cc2)NC(=O)[C@H](CCC(=O)O)NC1=O)[C@@H](C)O (single isomer, unassigned)    0

Next item in the queue.
For CC(=O)N[C@@H](CCC(=O)O)C(=O)N[C@H](C(=O)N[C@@H](Cc1ccccc1)C(=O)N[C@]1(C)CCCCCCC=CCCC[C@@](C)(C(=O)N[C@@H](CO)C(=O)N[C@@H](C)C(=O)N[C@@H](C)C(N)=O)NC(=O)[C@H](CC(C)C)NC(=O)[C@H](CCC(N)=O)NC(=O)[C@H](C)NC(=O)[C@H](Cc2c[nH]c3ccccc23)NC(=O)[C@H](Cc2ccc(O)cc2)NC(=O)[C@H](CCC(=O)O)NC1=O)[C@@H](C)O [compound 161] (Ac-ETF[R8]EYWAQL[S5]SAA-NH2; staple 4-11) the molecule record lists 50 μM % Lysed cells (1 h LDH) as 0

====

Test system: SJSA-1 cells
Experiment: Cell lysis by peptidomimetic macrocycles (LDH release)
Assay type: cell-based
Conditions: 50 μM, SJSA-1, 1 h
Bridge positions count the residues as written; N and C are the ends. Square brackets hold non-standard residues; d marks the D form. Peptide text beside a SMILES is read from it. R8 = C=CCCCCCC[C@@](C)(N)C(=O)O; S5 = C=CCCC[C@](C)(N)C(=O)O
// 50 μM % Lysed cells (1 h LDH) lookup, one value per entry

CC(=O)N[C@@H](C)C(=O)N[C@@H](CC(C)C)C(=O)N[C@H](C(=O)N[C@@H](Cc1ccccc1)C(=O)N[C@]1(C)CCCCCCC=CCCC[C@@](C)(C(=O)N[C@@H](CO)C(=O)N[C@@H](C)C(=O)N[C@@H](C)C(=O)N[C@H](C)C(N)=O)NC(=O)[C@H](CC2CCC2)NC(=O)[C@H](CCC(N)=O)NC(=O)[C@H](C)NC(=O)[C@H](Cc2c[nH]c3ccccc23)NC(=O)[C@H](Cc2ccc(O)cc2)NC(=O)[C@H](CCC(=O)O)NC1=O)[C@@H](C)O (single isomer, unassigned) [compound 355]    0%

For CC(=O)N[C@@H](CC(C)C)C(=O)N[C@H](C(=O)N[C@@H](Cc1ccccc1)C(=O)N[C@]1(C)CCCCCCC=CCCC[C@@](C)(C(=O)N[C@@H](C)C(=O)N[C@@H](C)C(=O)N[C@@H](C)C(=O)N[C@@H](C)C(=O)N[C@@H](C)C(=O)N[C@@H](C)C(=O)N[C@H](C)C(N)=O)NC(=O)[C@H](CC(C)C)NC(=O)[C@H](CCC(N)=O)NC(=O)[C@H](C)NC(=O)[C@H](Cc2c[nH]c3ccccc23)NC(=O)[C@H](Cc2ccc(O)cc2)NC(=O)[C@H](C)NC1=O)[C@@H](C)O (single isomer, unassigned) [compound 317] the compound record lists 50 μM % Lysed cells (1 h LDH) as 0%

For CC(=O)N[C@@H](CCC(=O)O)C(=O)N[C@H](C(=O)N[C@@H](Cc1ccccc1)C(=O)N[C@]1(C)CCCCCCC=CCCC[C@@](C)(C(=O)N[C@@H](C)C(=O)N[C@@H](C)C(=O)N[C@@H](C)C(=O)N[C@@H](C)C(=O)N[C@@H](C)C(=O)N[C@H](C)C(N)=O)NC(=O)[C@H](CC(C)C)NC(=O)[C@H](CCC(N)=O)NC(=O)[C@H](C)NC(=O)[C@H](Cc2c[nH]c3ccccc23)NC(=O)[C@H](Cc2ccc(O)cc2)NC(=O)[C@H](CCC(=O)O)NC1=O)[C@@H](C)O (single isomer, unassigned) [compound 340] the compound record lists 50 μM % Lysed cells (1 h LDH) as 0%

For CC(=O)N[C@@H](CC(C)C)C(=O)N[C@H](C(=O)N[C@@H](Cc1ccccc1)C(=O)N[C@]1(C)CCCCCCC=CCCC[C@@](C)(C(=O)N[C@@H](CO)C(=O)N[C@@H](C)C(=O)N[C@@H](CO)C(N)=O)NC(=O)[C@H](CC(C)C)NC(=O)[C@H](CCC(N)=O)NC(=O)[C@H](C)NC(=O)[C@H](Cc2c[nH]c3ccccc23)NC(=O)[C@H](Cc2ccc(O)cc2)NC(=O)[C@H](C)NC1=O)[C@@H](C)O [compound 122] (Ac-LTF[R8]AYWAQL[S5]SAS-NH2; staple 4-11) the compound record lists 50 μM % Lysed cells (1 h LDH) as 6%
